Tested on: Human rhinovirus sp.
experiment-notes: Inhibition of recombinant N-terminal His-tagged HRV 3C protease expressed in Escherichia coli at 100 uM preincubated for 15 mins followed by LEVLFQGPSK substrate addition after 45 mins by reverse-phase HPLC analysis relative to control
measured-quantity: inhibition (%)
API: value field is a number in %; no unit string.

// worked examples, inhibition included
1) CC1(C)O[C@H](C(=O)Nc2nc3ccccc3s2)[C@@H](C(=O)N2CCN(Cc3ccccc3)CC2)O1 : 56.4
2) CC1(C)O[C@H](C(=O)Nc2nc3ccccc3s2)[C@@H](C(=O)N2CCN(c3ccccn3)CC2)O1 : 82.5
3) Cc1cccc(CN2CCN(C(=O)[C@@H]3OC(C)(C)O[C@H]3C(=O)Nc3nc4ccccc4s3)CC2)c1 : 78.7

Note: attention shifts to another entry.
Query block: I'd like to know its inhibition. The compound in question is CC1(C)O[C@H](C(=O)Nc2nc3ccccc3s2)[C@@H](C(=O)N2CCN(c3ccccc3C#N)CC2)O1
Result block: 84.2
